Known 88Y-serum of a selection of compounds
Assay Info: Fraction of 88Y (%) released from chelate after incubation in serum for 15 hours
Type: ADME
Measurement Kind: 88Y-serum

[[record]]
compound = "O=C(O)CN(CC(=O)O)[C@H](Cc1ccc([N+](=O)[O-])cc1)CN(CC(=O)O)[C@@H]1CCCC[C@H]1N(CC(=O)O)CC(=O)O"
reported_result = "3.79%"

[[record]]
compound = "O=C(O)CN(CCN(CC(=O)O)C(Cc1ccc([N+](=O)[O-])cc1)CN(CC(=O)O)CC(=O)O)CC(=O)O (stereo not given)"
reported_result = "7%"

[[record]]
compound = "CC(CN(CC(=O)O)CC(Cc1ccc([N+](=O)[O-])cc1)N(CC(=O)O)CC(=O)O)N(CC(=O)O)CC(=O)O (stereo not given)"
reported_result = "6.27%"

[[record]]
compound = "O=C(O)CN(CC(=O)O)[C@@H](Cc1ccc([N+](=O)[O-])cc1)CN(CC(=O)O)[C@@H]1CCCC[C@H]1N(CC(=O)O)CC(=O)O"
reported_result = "18.5%"

[[record]]
compound = "CC(CN(CC(=O)O)CC(=O)O)N(CC(=O)O)CC(Cc1ccc([N+](=O)[O-])cc1)N(CC(=O)O)CC(=O)O (stereo not given)"
reported_result = "4.84%"

